B1: FBXO3 (parent)
chain: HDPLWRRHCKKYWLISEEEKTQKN

variants of: B1; assay: protein stability index of a GFP-peptide fusion (GPS, HEK-293T) (PSI 1-6); higher = more stable; settings: c terminus: a fixed tail appended;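 note: lentivirally expressed fusions sorted by FACS into six bins by GFP to DsRed ratio, PSI derived from sequencing read proportions per bin multiplied by bin number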
PROPERTY NAME: protein stability index
No unit in the answer, please; the number alone is enough.

Example entries and their recorded answers appear below.
Looking up R6K , I see its protein stability index listed as 3.32

The variant identified as W13K registered its protein stability index at 4.65

Summary for this variant, E18D : protein stability index is 3.2

Further cases:
R7P has a reported protein stability index of 4.42

Short answer for W13M : protein stability index was 3.76

Reported protein stability index of Y12H : 3.72
